biological target: calcineurin (Homo sapiens, UniProt P62937+P63098+Q08209); assay: Inhibition of the phosphatase activity of calcineurin (scintillation-proximity-assay, in presence of Cyp18);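 also: calcineurin dephosphorylation of a ³³P-labelled RII phosphopeptide, captured on streptavidin-coated wells and read by scintillation counting, with uninhibited enzyme activity taken as 100%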
Measurement Label: IC50

Please review the entries below; each comes with its answer.
>>> test_result("CC[C@@H]1NC(=O)[C@H]([C@H](O)[C@H](C)Cc2nc3cc(NC(=O)C(F)(F)F)ccc3[nH]2)N(C)C(=O)[C@H](C(C)C)N(C)C(=O)[C@H](CC(C)C)N(C)C(=O)[C@H](CC(C)C)N(C)C(=O)[C@@H](C)NC(=O)[C@H](C)NC(=O)[C@H](CC(C)C)N(C)C(=O)[C@H](C(C)C)NC(=O)[C@H](CC(C)C)N(C)C(=O)CN(C)C1=O")
"3.34 µM"
>>> test_result("CC[C@@H]1NC(=O)[C@H]([C@H](O)[C@H](C)Cc2nc3cc(/C=C/C(=O)OC(C)(C)C)ccc3[nH]2)N(C)C(=O)[C@H](C(C)C)N(C)C(=O)[C@H](CC(C)C)N(C)C(=O)[C@H](CC(C)C)N(C)C(=O)[C@@H](C)NC(=O)[C@H](C)NC(=O)[C@H](CC(C)C)N(C)C(=O)[C@H](C(C)C)NC(=O)[C@H](CC(C)C)N(C)C(=O)CN(C)C1=O")
"3.2 µM"
>>> test_result("CC[C@@H]1NC(=O)[C@H]([C@H](O)[C@H](C)Cc2nc3cc(N)c(N)cc3[nH]2)N(C)C(=O)[C@H](C(C)C)N(C)C(=O)[C@H](CC(C)C)N(C)C(=O)[C@H](CC(C)C)N(C)C(=O)[C@@H](C)NC(=O)[C@H](C)NC(=O)[C@H](CC(C)C)N(C)C(=O)[C@H](C(C)C)NC(=O)[C@H](CC(C)C)N(C)C(=O)CN(C)C1=O")
"8 µM"

Lab note: next molecule to report on.
Looking up "CC[C@@H]1NC(=O)[C@H]([C@H](O)[C@H](C)Cc2nc3cc(NS(=O)(=O)C(F)(F)F)ccc3[nH]2)N(C)C(=O)[C@H](C(C)C)N(C)C(=O)[C@H](CC(C)C)N(C)C(=O)[C@H](CC(C)C)N(C)C(=O)[C@@H](C)NC(=O)[C@H](C)NC(=O)[C@H](CC(C)C)N(C)C(=O)[C@H](C(C)C)NC(=O)[C@H](CC(C)C)N(C)C(=O)CN(C)C1=O" , I found its IC50 recorded as > 10 µM

---

Assay: Determination of cell permeability in PAMPA cell membranes (Parallel Artificial Membrane Permeability Assay)
Assay type: in vitro ADME
Conditions: 500 μM, Hepes buffer pH 7.4, 16 hours, room temperature
Protocol: After an incubation of 16 hours at room temperature in a liquid chamber the optical density of the solution after filtration has been measured in a range of 250 to 500 nm in steps of 10 nm each. The percentage “Flux” has been calculated from the integral of the graph between 250 and 500 nm and standardized on the optical density determined in the parallel reaction without artificial membrane.
Measurement Label: Cell permeability in PAMPA-cell membranes (% flux)
Note: unit % flux is implicit; provide only the numeric part.

Please review the entries below; each comes with its answer.
>>> test_result("CC[C@@H]1NC(=O)[C@H]([C@H](O)[C@H](C)Cc2nc3cc(S(N)(=O)=O)ccc3[nH]2)N(C)C(=O)[C@H](C(C)C)N(C)C(=O)[C@H](CC(C)C)N(C)C(=O)[C@H](CC(C)C)N(C)C(=O)[C@@H](C)NC(=O)[C@H](C)NC(=O)[C@H](CC(C)C)N(C)C(=O)[C@H](C(C)C)NC(=O)[C@H](CC(C)C)N(C)C(=O)CN(C)C1=O")
19.9
>>> test_result("CC[C@@H]1NC(=O)[C@H]([C@H](O)[C@H](C)Cc2nc3cc(-c4nnn[nH]4)ccc3[nH]2)N(C)C(=O)[C@H](C(C)C)N(C)C(=O)[C@H](CC(C)C)N(C)C(=O)[C@H](CC(C)C)N(C)C(=O)[C@@H](C)NC(=O)[C@H](C)NC(=O)[C@H](CC(C)C)N(C)C(=O)[C@H](C(C)C)NC(=O)[C@H](CC(C)C)N(C)C(=O)CN(C)C1=O")
0.25
>>> test_result("CC[C@@H]1NC(=O)[C@H]([C@H](O)[C@H](C)Cc2nc3ccc(C(=O)O)cc3[nH]2)N(C)C(=O)[C@H](C(C)C)N(C)C(=O)[C@H](CC(C)C)N(C)C(=O)[C@H](CC(C)C)N(C)C(=O)[C@@H](C)NC(=O)[C@H](C)NC(=O)[C@H](CC(C)C)N(C)C(=O)[C@H](C(C)C)NC(=O)[C@H](CC(C)C)N(C)C(=O)CN(C)C1=O")
1.7
>>> test_result("CC[C@@H]1NC(=O)[C@H]([C@H](O)[C@H](C)Cc2nc3cc(C(=O)O)c(C(=O)O)cc3[nH]2)N(C)C(=O)[C@H](C(C)C)N(C)C(=O)[C@H](CC(C)C)N(C)C(=O)[C@H](CC(C)C)N(C)C(=O)[C@@H](C)NC(=O)[C@H](C)NC(=O)[C@H](CC(C)C)N(C)C(=O)[C@H](C(C)C)NC(=O)[C@H](CC(C)C)N(C)C(=O)CN(C)C1=O")
0.2

Looking up "CC[C@@H]1NC(=O)[C@H]([C@H](O)[C@H](C)Cc2nc3cc(NC(=N)N)ccc3[nH]2)N(C)C(=O)[C@H](C(C)C)N(C)C(=O)[C@H](CC(C)C)N(C)C(=O)[C@H](CC(C)C)N(C)C(=O)[C@@H](C)NC(=O)[C@H](C)NC(=O)[C@H](CC(C)C)N(C)C(=O)[C@H](C(C)C)NC(=O)[C@H](CC(C)C)N(C)C(=O)CN(C)C1=O" , I found its Cell permeability in PAMPA-cell membranes recorded as 13.5

Looking up "CC[C@@H]1NC(=O)[C@H]([C@H](O)[C@H](C)Cc2nc3ccc(C(=O)O)cc3n2C)N(C)C(=O)[C@H](C(C)C)N(C)C(=O)[C@H](CC(C)C)N(C)C(=O)[C@H](CC(C)C)N(C)C(=O)[C@@H](C)NC(=O)[C@H](C)NC(=O)[C@H](CC(C)C)N(C)C(=O)[C@H](C(C)C)NC(=O)[C@H](CC(C)C)N(C)C(=O)CN(C)C1=O" , I found its Cell permeability in PAMPA-cell membranes recorded as 2

---

molecular target: recombinant human wild type Cyp18 (Cyp18 wt) (Homo sapiens); experiment: biochemical
Sequence (P62937 whole entry): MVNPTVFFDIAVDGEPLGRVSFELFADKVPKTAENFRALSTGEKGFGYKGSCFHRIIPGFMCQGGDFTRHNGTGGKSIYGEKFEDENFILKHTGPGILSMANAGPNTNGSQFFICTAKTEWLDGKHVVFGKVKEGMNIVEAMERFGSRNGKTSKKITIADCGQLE
Categories are assigned from the measured IC50 using these intervals: bottom range = under 0.01 µM, center range = from 0.01 µM up to 0.02 µM, top range = 0.02 µM and over

>>> label("CC[C@@H]1NC(=O)[C@H]([C@H](O)[C@H](C)Cc2nc3cc(C(=O)OCCN(C)C)ccc3[nH]2)N(C)C(=O)[C@H](C(C)C)N(C)C(=O)[C@H](CC(C)C)N(C)C(=O)[C@H](CC(C)C)N(C)C(=O)[C@@H](C)NC(=O)[C@H](C)NC(=O)[C@H](CC(C)C)N(C)C(=O)[C@H](C(C)C)NC(=O)[C@H](CC(C)C)N(C)C(=O)CN(C)C1=O [Compound 26]")
"center range"

// query Band for the recorded IC50 of CC[C@@H]1NC(=O)[C@H]([C@H](O)[C@H](C)Cc2nc3cc(F)cc(C(=O)O)c3[nH]2)N(C)C(=O)[C@H](C(C)C)N(C)C(=O)[C@H](CC(C)C)N(C)C(=O)[C@H](CC(C)C)N(C)C(=O)[C@@H](C)NC(=O)[C@H](C)NC(=O)[C@H](CC(C)C)N(C)C(=O)[C@H](C(C)C)NC(=O)[C@H](CC(C)C)N(C)C(=O)CN(C)C1=O [Compound 21] ?
// result top range

// query Band for the recorded IC50 of CC[C@@H]1NC(=O)[C@H]([C@H](O)[C@H](C)Cc2nc3cc(N)c(N)cc3[nH]2)N(C)C(=O)[C@H](C(C)C)N(C)C(=O)[C@H](CC(C)C)N(C)C(=O)[C@H](CC(C)C)N(C)C(=O)[C@@H](C)NC(=O)[C@H](C)NC(=O)[C@H](CC(C)C)N(C)C(=O)[C@H](C(C)C)NC(=O)[C@H](CC(C)C)N(C)C(=O)CN(C)C1=O [Compound 40] ?
// result bottom range

---

target: recombinant human wild type Cyp18 (Cyp18 wt) (Homo sapiens); experiment: biochemical
Measurement Label: IC50 (nM)
Note: unit nM is implicit; provide only the numeric part.

Looking up CCC(CC)COC(=O)c1ccc2[nH]c(C[C@@H](C)[C@@H](O)[C@H]3C(=O)N[C@@H](CC)C(=O)N(C)CC(=O)N(C)[C@@H](CC(C)C)C(=O)N[C@@H](C(C)C)C(=O)N(C)[C@@H](CC(C)C)C(=O)N[C@@H](C)C(=O)N[C@H](C)C(=O)N(C)[C@@H](CC(C)C)C(=O)N(C)[C@@H](CC(C)C)C(=O)N(C)[C@@H](C(C)C)C(=O)N3C)nc2c1 [Compound 10] , I found its IC50 recorded as 11.5

Looking up CC[C@@H]1NC(=O)[C@H]([C@H](O)[C@H](C)Cc2nc3cc(C(=O)OCCN4CCOCC4)ccc3[nH]2)N(C)C(=O)[C@H](C(C)C)N(C)C(=O)[C@H](CC(C)C)N(C)C(=O)[C@H](CC(C)C)N(C)C(=O)[C@@H](C)NC(=O)[C@H](C)NC(=O)[C@H](CC(C)C)N(C)C(=O)[C@H](C(C)C)NC(=O)[C@H](CC(C)C)N(C)C(=O)CN(C)C1=O [Compound 27] , I found its IC50 recorded as 5.9

Looking up CC[C@@H]1NC(=O)[C@H]([C@H](O)[C@H](C)Cc2nc3cc(NC(=N)N)ccc3[nH]2)N(C)C(=O)[C@H](C(C)C)N(C)C(=O)[C@H](CC(C)C)N(C)C(=O)[C@H](CC(C)C)N(C)C(=O)[C@@H](C)NC(=O)[C@H](C)NC(=O)[C@H](CC(C)C)N(C)C(=O)[C@H](C(C)C)NC(=O)[C@H](CC(C)C)N(C)C(=O)CN(C)C1=O [Compound 46] , I found its IC50 recorded as 13.1

Data provenance is patent US9453051B2.
